Sourced from ChEMBL document CHEMBL1147069

Target: High affinity nerve growth factor receptor (Rattus norvegicus) (UniProt P35739)
Sequence (P35739 whole entry): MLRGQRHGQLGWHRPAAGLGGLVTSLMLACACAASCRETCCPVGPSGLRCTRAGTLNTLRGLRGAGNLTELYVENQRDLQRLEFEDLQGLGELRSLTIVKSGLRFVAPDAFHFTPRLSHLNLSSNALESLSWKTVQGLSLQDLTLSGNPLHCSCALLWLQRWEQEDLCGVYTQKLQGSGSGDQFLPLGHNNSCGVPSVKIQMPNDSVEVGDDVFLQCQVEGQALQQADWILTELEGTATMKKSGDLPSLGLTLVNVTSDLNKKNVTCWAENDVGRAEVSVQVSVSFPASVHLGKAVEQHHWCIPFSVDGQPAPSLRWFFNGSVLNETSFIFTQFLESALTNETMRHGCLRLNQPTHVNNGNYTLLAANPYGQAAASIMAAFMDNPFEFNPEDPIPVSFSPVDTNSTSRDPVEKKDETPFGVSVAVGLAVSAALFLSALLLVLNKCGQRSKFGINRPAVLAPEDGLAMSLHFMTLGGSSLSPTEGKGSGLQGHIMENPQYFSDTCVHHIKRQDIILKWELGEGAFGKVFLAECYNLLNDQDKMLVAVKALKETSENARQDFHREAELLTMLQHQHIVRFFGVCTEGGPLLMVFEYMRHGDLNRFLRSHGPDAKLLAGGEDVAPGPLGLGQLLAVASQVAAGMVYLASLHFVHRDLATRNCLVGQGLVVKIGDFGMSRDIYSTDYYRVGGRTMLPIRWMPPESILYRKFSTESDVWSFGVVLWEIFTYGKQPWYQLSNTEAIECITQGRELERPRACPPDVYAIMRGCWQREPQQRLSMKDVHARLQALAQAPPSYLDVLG
Test: Induction of TrkA phosphorylation in rat hippocampal neurons at 0.5 uM after 30 mins
Assay type: tissue-based
Conditions: Hippocampus
Calls of active or inactive are those of the source. The rule behind the calls is not given here.
Outcome codes: T (active), F (inactive)

INSERT INTO measurements (compound, group) VALUES
  ('CC(C)=CCC[C@]1(C)C=Cc2c(O)c3c(c(CC=C(C)C)c2O1)O[C@]12C(=C[C@@H]4C[C@H]1C(C)(C)O[C@@]2(C/C=C(/C)C(=O)O)C4=O)C3=O [GAMBOGIC ACID]', 'F'),
  ('CC(C)=CCC[C@]1(C)C=Cc2c(O)c3c(c(CC=C(C)C)c2O1)O[C@]12C(C[C@@H]4CC1C(C)(C)O[C@@]2(C/C=C(/C)C(=O)O)C4O)C3=O (some centres not stated)', 'F'),
  ('CC(=O)Oc1c2c(c(CC=C(C)C)c3c1C(=O)C1=C[C@@H]4CC5C(C)(C)O[C@@](C/C=C(\C)C(=O)O)(C4=O)[C@@]15O3)O[C@](C)(CCC=C(C)C)C=C2', 'F'),
  ('COC(=O)/C(C)=C\C[C@@]12OC(C)(C)C3C[C@@H](C=C4C(=O)c5c(OC)c6c(c(CC=C(C)C)c5O[C@]431)O[C@](C)(CCC=C(C)C)C=C6)C2=O', 'F'),
  ('CC(C)=CCC[C@]1(C)C=Cc2c(O)c3c(c(CC=C(C)C)c2O1)O[C@]12C(=C[C@@H]4CC1C(C)(C)O[C@@]2(C/C=C(/C)C(=O)O)C4O)C3=O (some centres not stated)', 'F'),
  ('CC(C)=CCC[C@]1(C)C=Cc2c(O)c3c(c(CC=C(C)C)c2O1)O[C@]12C(=C[C@@H]4CC1C(C)(C)O[C@@]2(C/C=C(/C)C(N)=O)C4=O)C3=O [GAMBOGIC AMIDE]', 'T'),
  ('CC(C)CCC[C@]1(C)C=Cc2c(O)c3c(c(CCC(C)C)c2O1)O[C@]12C(C[C@@H]4CC1C(C)(C)O[C@@]2(CCC(C)C(=O)O)C4O)C3=O (some centres not stated)', 'F');
